# ASSAY TARGET: human B7-H3 (human) (UniProt Q5ZPR3)
# PROTOCOL: flow cytometry (FACS) on CHO-K1 cells expressing human B7-H3; goat anti-human IgG (H+L) secondary
MEASUREMENT KIND: EC50 (nM)
# number only, unit nM dropped from output

Input: EC50 lookup needed for 43H11G12-VH4-VL2 (antibody, human IgG1, kappa, V domains shown) VH: QVQLVQSGAEVKKPGASVKVSCKASGYNFRDFGMNWVRQAPGQRLEWMGWLNSYSGVPTYADDFKGRVTITRDTSASTAYMELSSLRSEDTAVYYCARDDGYNYTMNYWGQGTLVTVSS VL: DIVMTQSPLSLPVTPGEPASISCRSSQSLVHSNGITYLHWYLQKPGQSPQLLIYKVSNRFSGVPDRFSGSGSGTDFTLKISRVEAEDVGVYYCSQSTHVPWTFGQGTKVEIKR , thanks.
Output: 0.155
